Origin of measurements: paper PMC6496074

Overview of reported IC50 across a group of compounds:
# tested_system: CaCYP51 V437I (Candida albicans, UniProt P10613, V437I)
# protocol_details: CYP51 reconstitution assay
# applied_conditions: mean ± SD, duplicate
Please reply with the bare figure in nM and do not write the unit itself.

// known answers, use as guide
{"compound": "OC(Cn1cncn1)(Cn1cncn1)c1ccc(F)cc1F", "unit_info": "nM", "IC50": 281}
{"compound": "CCC(C)n1ncn(-c2ccc(N3CCN(c4ccc(OCC5COC(Cn6cncn6)(c6ccc(Cl)cc6Cl)O5)cc4)CC3)cc2)c1=O (stereo not drawn)", "unit_info": "nM", "IC50": 293}

Now look at this entry.
stdin: Tell me its IC50 given CC[C@@H]([C@H](C)O)n1ncn(-c2ccc(N3CCN(c4ccc(OC[C@@H]5CO[C@@](Cn6cncn6)(c6ccc(F)cc6F)C5)cc4)CC3)cc2)c1=O as the entry.
stdout: 319

---

# tested_system: CaCYP51 Y257H (Candida albicans, UniProt P10613, Y257H)
# Construct: made in house; host or cells: E. coli DH5α (pCWori+)
# protocol_details: CYP51 reconstitution assay
# Assay type: biochemical
# applied_conditions: 0.25 h, 4 μM triazole, % of activity without triazole, read-out: Residual CYP51 activity (%) ± SD
readout_type: remaining activity at 4 µM (%)
Output spec: scalar in %, unitless text.

Sample answers from the record:
{"molecule": "OC(Cn1cncn1)(Cn1cncn1)c1ccc(F)cc1F [Fluconazole, fluconazole]", "unit_info": "%", "remaining activity at 4 µM": 3.96}
{"molecule": "C[C@@H](c1ncncc1F)[C@](O)(Cn1cncn1)c1ccc(F)cc1F [Voriconazole, voriconazole]", "unit_info": "%", "remaining activity at 4 µM": 0.63}
{"molecule": "CC[C@@H]([C@H](C)O)n1ncn(-c2ccc(N3CCN(c4ccc(OC[C@@H]5CO[C@@](Cn6cncn6)(c6ccc(F)cc6F)C5)cc4)CC3)cc2)c1=O [Posaconazole, posaconazole]", "unit_info": "%", "remaining activity at 4 µM": 6.42}

Now let's try a different one.
stdin: Look up and report measured remaining activity at 4 µM for this entry: CCC(C)n1ncn(-c2ccc(N3CCN(c4ccc(OCC5COC(Cn6cncn6)(c6ccc(Cl)cc6Cl)O5)cc4)CC3)cc2)c1=O (stereo not shown) [Itraconazole, itraconazole]
stdout: 1.37

---

# tested_system: CaCYP51 S279F (Candida albicans, UniProt P10613, S279F)
# Sequence (P10613 whole entry, looked up, stated change not applied): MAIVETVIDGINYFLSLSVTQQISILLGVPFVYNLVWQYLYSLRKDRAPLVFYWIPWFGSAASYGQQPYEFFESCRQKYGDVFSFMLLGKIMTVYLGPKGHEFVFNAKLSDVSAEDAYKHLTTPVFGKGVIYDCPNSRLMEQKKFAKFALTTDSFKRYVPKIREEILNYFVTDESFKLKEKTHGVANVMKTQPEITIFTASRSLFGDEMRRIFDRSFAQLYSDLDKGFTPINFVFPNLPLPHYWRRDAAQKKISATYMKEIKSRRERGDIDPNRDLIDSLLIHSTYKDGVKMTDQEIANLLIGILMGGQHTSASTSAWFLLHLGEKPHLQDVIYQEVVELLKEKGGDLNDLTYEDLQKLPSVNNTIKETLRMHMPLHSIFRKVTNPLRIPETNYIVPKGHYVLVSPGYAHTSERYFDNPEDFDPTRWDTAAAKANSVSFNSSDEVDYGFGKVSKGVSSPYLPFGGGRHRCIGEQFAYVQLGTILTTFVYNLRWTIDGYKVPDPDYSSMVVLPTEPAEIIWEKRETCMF
# protocol_details: CYP51 reconstitution assay
# applied_conditions: mean ± SD, duplicate
Listed next: entries and their corresponding pIC50.
// pIC50 is dimensionless: -log10 of concentration (M)

These recorded examples may help you get a feel for the data.
{"compound": "CC[C@@H]([C@H](C)O)n1ncn(-c2ccc(N3CCN(c4ccc(OC[C@@H]5CO[C@@](Cn6cncn6)(c6ccc(F)cc6F)C5)cc4)CC3)cc2)c1=O [Posaconazole, posaconazole]", "meas_value": 6.04}
{"compound": "CCC(C)n1ncn(-c2ccc(N3CCN(c4ccc(OCC5COC(Cn6cncn6)(c6ccc(Cl)cc6Cl)O5)cc4)CC3)cc2)c1=O (stereo not drawn) [Itraconazole, itraconazole]", "meas_value": 6.24}

Next item in the queue.
stdin: Please look at this compound and report its pIC50: OC(Cn1cncn1)(Cn1cncn1)c1ccc(F)cc1F [Fluconazole, fluconazole]
stdout: 5.98

---

# Test system: C. albicans SC5314 strain with CaCYP51 substitution Y132F+K143R
# protocol_details: CLSI broth microdilution MIC
# Assay type: cell-based
# applied_conditions: Candida albicans, RPMI 1640, 24 h, 35°C, 50% reduction in growth
# Method: Strains expressing seven single mutations (Y132F, K143R, F145L, S405F, G448E, G450E, G464S) and three double mutations (Y132F+K143R, Y132F+F145L, D278N+G464S) were selected from a previous study ([36]). […] Azole MICs were determined using the broth microdilution method described by the Clinical Laboratory and Standards Institute ([45], [46]). […] Measurements were read visually at 24 h after incubation at 35°C for a 50% reduction in growth from that in the drug-free control wells. […]
readout_type: MIC (µg/mL)
Form entry: value (µg/mL) — number only.

{"compound": "CCC(C)n1ncn(-c2ccc(N3CCN(c4ccc(OCC5COC(Cn6cncn6)(c6ccc(Cl)cc6Cl)O5)cc4)CC3)cc2)c1=O (stereo not shown)", "meas_value": 0.25}
{"compound": "OC(Cn1cncn1)(Cn1cncn1)c1ccc(F)cc1F", "meas_value": 32}

Attention now shifts to the item below.
stdin: Determine its reported MIC: C[C@@H](c1ncncc1F)[C@](O)(Cn1cncn1)c1ccc(F)cc1F
stdout: 1

---

# tested_system: CaCYP51 F145L (Candida albicans, UniProt P10613, F145L)
# Construct: made in house; host or cells: E. coli DH5α (pCWori+)
# protocol_details: CYP51 reconstitution assay
# Type: biochemical
# applied_conditions: 0.25 h, 4 μM triazole, % of activity without triazole, read-out: Residual CYP51 activity (%) ± SD
The following molecules are listed with their measured remaining activity at 4 µM values.
Write the value in % as a bare number.

Sample records with remaining activity at 4 µM:
{"molecule": "C[C@@H](c1ncncc1F)[C@](O)(Cn1cncn1)c1ccc(F)cc1F", "remaining activity at 4 µM (%)": 0.37}
{"molecule": "CCC(C)n1ncn(-c2ccc(N3CCN(c4ccc(OCC5COC(Cn6cncn6)(c6ccc(Cl)cc6Cl)O5)cc4)CC3)cc2)c1=O (stereo not shown)", "remaining activity at 4 µM (%)": 1.99}
{"molecule": "OC(Cn1cncn1)(Cn1cncn1)c1ccc(F)cc1F", "remaining activity at 4 µM (%)": 6.71}

// switching to the query molecule
stdin: Give remaining activity at 4 µM for the following molecule: CC[C@@H]([C@H](C)O)n1ncn(-c2ccc(N3CCN(c4ccc(OC[C@@H]5CO[C@@](Cn6cncn6)(c6ccc(F)cc6F)C5)cc4)CC3)cc2)c1=O
stdout: 1.37

---

# tested_system: CaCYP51 Y447H (Candida albicans, UniProt P10613, Y447H)
# Construct: made in house; host or cells: E. coli DH5α (pCWori+)
# Sequence (P10613 whole entry, looked up, stated change not applied): as above
# protocol_details: CYP51 reconstitution assay
# Format: biochemical
# applied_conditions: 0.25 h, 4 μM triazole, % of activity without triazole, read-out: Residual CYP51 activity (%) ± SD
readout_type: remaining activity at 4 µM (%)
Express it in %; write the number only.

Worked examples follow.
{"molecule": "CC[C@@H]([C@H](C)O)n1ncn(-c2ccc(N3CCN(c4ccc(OC[C@@H]5CO[C@@](Cn6cncn6)(c6ccc(F)cc6F)C5)cc4)CC3)cc2)c1=O [Posaconazole, posaconazole]", "remaining activity at 4 µM [%]": 8.19}
{"molecule": "OC(Cn1cncn1)(Cn1cncn1)c1ccc(F)cc1F [Fluconazole, fluconazole]", "remaining activity at 4 µM [%]": 4.34}
{"molecule": "CCC(C)n1ncn(-c2ccc(N3CCN(c4ccc(OCC5COC(Cn6cncn6)(c6ccc(Cl)cc6Cl)O5)cc4)CC3)cc2)c1=O (stereo not shown) [Itraconazole, itraconazole]", "remaining activity at 4 µM [%]": 1.45}

Now for a further molecule.
stdin: Quickly give me recorded remaining activity at 4 µM for C[C@@H](c1ncncc1F)[C@](O)(Cn1cncn1)c1ccc(F)cc1F [Voriconazole, voriconazole]
stdout: 2.07

---

# tested_system: CaCYP51 Wild type (Candida albicans, UniProt P10613)
# Construct: made in house; host or cells: E. coli DH5α (pCWori+)
# protocol_details: CYP51 reconstitution assay
# Format: biochemical
# applied_conditions: IC50
readout_type: IC50 (nM)
Record the value in nM, omitting the unit from your answer.

stdin: Supply measured IC50 of OC(Cn1cncn1)(Cn1cncn1)c1ccc(F)cc1F in your reply.
stdout: 384

---

Below, each entry is listed alongside its reported remaining activity at 4 µM.
# tested_system: CaCYP51 S279F (Candida albicans, UniProt P10613, S279F)
# Construct: made in house; host or cells: E. coli DH5α (pCWori+)
# protocol_details: CYP51 reconstitution assay
# Type: biochemical
# applied_conditions: 0.25 h, 4 μM triazole, % of activity without triazole, read-out: Residual CYP51 activity (%) ± SD
# Method: Azole antifungal agents were added in 2.5 μl dimethyl sulfoxide, followed by 10 min of incubation at 37°C prior to assay initiation with 4 mM β-NADPH-Na4. The samples were then shaken for 15 min at 37°C. […]
Response body: numeric value in %, unit text excluded.

{"compound": "C[C@@H](c1ncncc1F)[C@](O)(Cn1cncn1)c1ccc(F)cc1F", "unit_info": "%", "remaining activity at 4 µM": 6.15}
{"compound": "CC[C@@H]([C@H](C)O)n1ncn(-c2ccc(N3CCN(c4ccc(OC[C@@H]5CO[C@@](Cn6cncn6)(c6ccc(F)cc6F)C5)cc4)CC3)cc2)c1=O", "unit_info": "%", "remaining activity at 4 µM": 20.6}
{"compound": "CCC(C)n1ncn(-c2ccc(N3CCN(c4ccc(OCC5COC(Cn6cncn6)(c6ccc(Cl)cc6Cl)O5)cc4)CC3)cc2)c1=O (stereo not shown)", "unit_info": "%", "remaining activity at 4 µM": 5.97}

Now consider the entry below.
stdin: Identify measured remaining activity at 4 µM associated with OC(Cn1cncn1)(Cn1cncn1)c1ccc(F)cc1F
stdout: 18
